method.notes: in vitro
stated.conditions: African green monkey
test.readout: CC50 at 3 days (µM)
One number for each entry, in µM.

-- ask What measured CC50 at 3 days goes with CCC(CC)COC(=O)[C@H](C)N[P@](=O)(OC[C@H]1O[C@@](C#N)(c2ccc3c(N)ncnn23)[C@H](O)[C@@H]1O)Oc1ccccc1 ?
-- reply 297
